The values you see were collected from patent US20240148882A1.

- tgt: VEGF165 (human, UniProt P15692-4 27-191)
- Sequence (P15692 other isoform, or with tags, fused parts or gaps limits assumed): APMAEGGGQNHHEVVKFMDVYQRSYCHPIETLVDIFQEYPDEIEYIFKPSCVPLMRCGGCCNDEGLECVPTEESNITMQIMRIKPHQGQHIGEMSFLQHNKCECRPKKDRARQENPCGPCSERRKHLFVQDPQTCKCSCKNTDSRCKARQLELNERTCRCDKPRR
- protocol-summary: cell-based or functional assay
measure: IC50, HUVEC Survival (µg/mL)
Numeric answer only, unit µg/mL assumed.

Solved entries:
[[record]]
binder = "mvsFlt 1 MDa LCR (multivalent sFlt-hyaluronic acid conjugate, low conjugation ratio) (other, UniProt P17948 27-328, looked up, thiolated with 2-iminothiolane and linked through EMCH maleimide to 1 MDa hyaluronic acid, domain: first 3 Ig-like extracellular domains; Protein-polymer conjugate; 10:1 sFlt:HyA feed ratio; final sFlt:HyA 5.2 by SEC-MALS; not shown: tag implied by Ni-NTA purification, not described) SKLKDPELSLKGTQHIMQAGQTLHLQCRGEAAHKWSLPEMVSKESERLSITKSACGRNGKQFCSTLTLNTAQANHTGFYSCKYLAVPTSKKKETESAIYIFISDTGRPFVEMYSEIPEIIHMTEGRELVIPCRVTSPNITVTLKKFPLDTLIPDGKRIIWDSRKGFIISNATYKEIGLLTCEATVNGHLYKTNYLTHRQTNTIIDVQISTPRPVKLLRGHTLVLNCTATTPLNTRVQMTWSYPDEKNKRASVRRRIDQSNSHANIFYSVLTIDKMQNKDKGLYTCRVRSGPSFKSVNTSVHI"
measure = "IC50, HUVEC Survival"
reported_value = 0.0449

[[record]]
binder = "soluble fms-like tyrosine kinase-1 (sFlt), unconjugated (receptor, UniProt P17948 27-328, looked up, domain: first 3 Ig-like extracellular domains; Expressed in High Five insect cells, about 50 kDa; also called recombinant sFlt; soluble Flt-1 receptor; not shown: tag implied by Ni-NTA purification, not described for the tested protein (the ex)) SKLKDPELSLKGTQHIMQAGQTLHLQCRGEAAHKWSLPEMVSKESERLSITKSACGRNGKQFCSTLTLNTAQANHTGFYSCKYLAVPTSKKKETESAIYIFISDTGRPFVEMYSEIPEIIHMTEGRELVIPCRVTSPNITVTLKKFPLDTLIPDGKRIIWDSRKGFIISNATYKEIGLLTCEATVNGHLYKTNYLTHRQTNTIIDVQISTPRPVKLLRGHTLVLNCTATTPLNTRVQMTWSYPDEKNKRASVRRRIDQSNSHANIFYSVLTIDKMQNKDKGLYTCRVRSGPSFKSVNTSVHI"
measure = "IC50, HUVEC Survival"
reported_value = 0.0393


// switching to the query binder
Request: Data request, read-out IC50, HUVEC Survival, for mvsFlt 300 kDa LCR (multivalent sFlt-hyaluronic acid conjugate, low conjugation ratio) (other, UniProt P17948 27-328, looked up, thiolated with 2-iminothiolane and linked through EMCH maleimide to 300 kDa hyaluronic acid, domain: first 3 Ig-like extracellular domains; Protein-polymer conjugate; 10:1 sFlt:HyA feed ratio; final sFlt:HyA 7.9 by SEC-MALS; not shown: tag implied by Ni-NTA purification, not described) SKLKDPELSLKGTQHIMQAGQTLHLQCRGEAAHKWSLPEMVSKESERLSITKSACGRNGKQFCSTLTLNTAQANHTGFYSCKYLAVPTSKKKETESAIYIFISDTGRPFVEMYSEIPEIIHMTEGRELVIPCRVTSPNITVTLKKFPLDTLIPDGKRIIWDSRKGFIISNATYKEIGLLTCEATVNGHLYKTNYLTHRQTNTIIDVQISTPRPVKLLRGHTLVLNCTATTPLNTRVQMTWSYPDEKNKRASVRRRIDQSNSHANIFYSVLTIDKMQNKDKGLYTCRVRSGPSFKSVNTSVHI
Response: 0.0469
